procedure_text: RP, Thermo Scientific Acclaim RSLC 120 C18, 100 × 2.1 mm, 2.2 µm, 30 °C, 0.2 mL/min, estimated dead time 1.1 min; A: 90% water + 10% methanol + 0.01% formic acid + 5 mM ammonium formate, pH 3.61; B: methanol + 0.01% formic acid + 5 mM ammonium formate, pH 3.61; gradient (min/%B) 0/1 1/1 2/39 13/99.9 15/99.9 15.1/1 20.1/1
condition_notes: stereoisomer not certain
measured_endpoint: LC retention time (min)

molecule=N#Cc1ccc(CC(=NNC(=O)Nc2ccc(OC(F)(F)F)cc2)c2cccc(C(F)(F)F)c2)cc1 result_units=min readout_number=12.1
molecule=CN(C)C(=O)NC1CCCCCCC1 result_units=min readout_number=8.47
molecule="Cc1cc(C)cc(OCC2CNC(=O)O2)c1 (centres undefined)" result_units=min readout_number=7.86
molecule="CN(Cc1cnc2nc(N)nc(N)c2n1)c1ccc(C(=O)NC(CCC(=O)O)C(=O)O)cc1 (centres undefined) [Methotrexate]" result_units=min readout_number=3.96
molecule=O=C(NC12CC3CC(CC(C3)C1)C2)c1nn(CCCCCF)c2ccccc12 result_units=min readout_number=12.9
molecule="CC(=O)c1ccc(S(=O)(=O)NC(=O)NC2CCCCC2)cc1 [Acetohexamide]" result_units=min readout_number=7.72
molecule=CN(C)C(=O)Nc1cccc(C(F)(F)F)c1 result_units=min readout_number=7.85
molecule=CCCS(=O)(=O)c1ccc2nc(NC(=O)OC)[nH]c2c1 result_units=min readout_number=5.86
molecule="O=C(NC(CO)C(O)c1ccc([N+](=O)[O-])cc1)C(Cl)Cl (centres undefined)" result_units=min readout_number=12.7
molecule="O=C(NCC1CCCCN1)c1cc(OCC(F)(F)F)ccc1OCC(F)(F)F (centres undefined) [Flecainide]" result_units=min readout_number=6.44
molecule="O=C(NCCN1CCOCC1)c1ccc(Cl)cc1 [Moclobemide]" result_units=min readout_number=4.98
molecule=CN(C)CCc1ccc(O)cc1 result_units=min readout_number=2.28
molecule="NNC(=O)c1ccncc1 [Isoniazide]" result_units=min readout_number=2.18
molecule="CC(C(=O)c1ccccc1)N1CCCC1 (centres undefined)" result_units=min readout_number=4.01
molecule=COCCCCC(=NOCCN)c1ccc(C(F)(F)F)cc1 result_units=min readout_number=8.28
molecule="NS(=O)(=O)c1cc(C(=O)O)cc(N2CCCC2)c1Oc1ccccc1 [Piretanide]" result_units=min readout_number=7.17
molecule=CON(C)C(=O)Nc1ccc(Br)cc1 result_units=min readout_number=8.15
molecule=O=C(NC(=O)c1c(F)cccc1F)Nc1cc(Cl)c(F)c(Cl)c1F result_units=min readout_number=12.5
molecule="CC(C)C(O)(C(=O)OCC1=CC[N+]2([O-])CCC(O)C12)C(C)O (centres undefined) [Lycopsamine-N-oxide]" result_units=min readout_number=3.94
